Recorded IC50 for the following molecules
# assayedSystem: α4β1 (Homo sapiens, UniProt P05556+P13612)
# Construct: 100 µl of Jurkat cells (2.5 x 10^6 cells/ml) in DMEM plus BSA
# Sequence (P13612 34-1032): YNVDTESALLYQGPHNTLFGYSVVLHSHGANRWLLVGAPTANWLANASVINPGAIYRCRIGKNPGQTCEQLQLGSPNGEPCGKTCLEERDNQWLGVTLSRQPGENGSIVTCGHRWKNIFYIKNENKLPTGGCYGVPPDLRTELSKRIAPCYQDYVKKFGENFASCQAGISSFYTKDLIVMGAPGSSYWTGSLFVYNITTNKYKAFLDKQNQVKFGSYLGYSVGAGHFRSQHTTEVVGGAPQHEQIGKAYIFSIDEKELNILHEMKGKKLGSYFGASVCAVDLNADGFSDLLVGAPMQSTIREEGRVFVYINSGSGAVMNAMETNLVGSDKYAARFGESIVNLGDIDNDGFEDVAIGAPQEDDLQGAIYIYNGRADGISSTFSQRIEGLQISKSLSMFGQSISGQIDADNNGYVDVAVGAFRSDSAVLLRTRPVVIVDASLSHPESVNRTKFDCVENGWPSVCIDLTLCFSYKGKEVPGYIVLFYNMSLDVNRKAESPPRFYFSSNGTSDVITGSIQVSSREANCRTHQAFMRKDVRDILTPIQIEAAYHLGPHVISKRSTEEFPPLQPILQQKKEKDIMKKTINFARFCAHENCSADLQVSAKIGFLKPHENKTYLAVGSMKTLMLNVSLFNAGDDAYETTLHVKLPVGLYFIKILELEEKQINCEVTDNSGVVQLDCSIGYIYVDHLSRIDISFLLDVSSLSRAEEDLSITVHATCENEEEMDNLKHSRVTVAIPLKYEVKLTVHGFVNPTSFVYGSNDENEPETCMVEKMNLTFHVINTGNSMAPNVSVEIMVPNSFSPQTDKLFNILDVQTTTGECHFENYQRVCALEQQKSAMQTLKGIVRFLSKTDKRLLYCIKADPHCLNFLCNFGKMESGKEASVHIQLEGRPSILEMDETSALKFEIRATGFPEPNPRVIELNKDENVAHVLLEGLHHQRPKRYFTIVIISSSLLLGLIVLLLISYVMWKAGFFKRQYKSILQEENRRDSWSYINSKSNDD
# Sequence (P05556 21-798): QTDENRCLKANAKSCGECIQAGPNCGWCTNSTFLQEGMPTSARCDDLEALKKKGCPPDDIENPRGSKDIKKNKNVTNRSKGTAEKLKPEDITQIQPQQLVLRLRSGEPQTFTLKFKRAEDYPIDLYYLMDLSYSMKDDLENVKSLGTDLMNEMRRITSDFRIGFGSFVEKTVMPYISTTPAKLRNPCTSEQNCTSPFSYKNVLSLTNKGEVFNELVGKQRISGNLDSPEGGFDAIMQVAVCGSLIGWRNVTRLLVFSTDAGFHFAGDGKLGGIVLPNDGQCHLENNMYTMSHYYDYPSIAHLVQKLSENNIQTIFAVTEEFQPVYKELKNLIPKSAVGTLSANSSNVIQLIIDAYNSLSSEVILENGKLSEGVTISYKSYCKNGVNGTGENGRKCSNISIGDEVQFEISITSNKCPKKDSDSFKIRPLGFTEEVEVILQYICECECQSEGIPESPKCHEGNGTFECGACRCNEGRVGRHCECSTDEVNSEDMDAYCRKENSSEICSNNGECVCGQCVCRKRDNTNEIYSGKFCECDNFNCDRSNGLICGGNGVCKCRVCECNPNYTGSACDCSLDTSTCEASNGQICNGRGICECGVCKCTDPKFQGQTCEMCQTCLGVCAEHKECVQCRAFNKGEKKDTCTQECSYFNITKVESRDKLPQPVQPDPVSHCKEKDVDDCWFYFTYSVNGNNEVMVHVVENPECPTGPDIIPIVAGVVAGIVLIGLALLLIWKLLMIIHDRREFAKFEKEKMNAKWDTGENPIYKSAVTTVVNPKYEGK
# experimentNotes: Jurkat-CS-1 assay
# experimentalParameters: Jurkat cell adhesion to immobilized CS-1 derived peptide

Please review the following examples before continuing.
O=C(O)c1cncc(C(=O)Nc2cccc(C(=O)N[C@@H](Cc3ccc(NC(=O)c4c(Cl)cccc4Cl)cc3)C(=O)O)c2)c1 [Example 44]; 80 to 500 nM
O=C(NC1(C(=O)N[C@@H](Cc2ccc(NC(=O)c3c(Cl)cccc3Cl)cc2)C(=O)O)CC2CCC1C2)c1cc(O)c2ccccc2n1 (stereo partly shown) [Example 73]; 500 to 1000 nM
CC(C)(Sc1ccccc1C(=O)O)C(=O)N[C@@H](Cc1ccc(NC(=O)c2c(Cl)cccc2Cl)cc1)C(=O)O [Example 25]; 500 to 1000 nM

Entry O=C(NC1(C(=O)N[C@@H](Cc2ccc(NC(=O)c3c(Cl)cccc3Cl)cc2)C(=O)O)CC2CCC1C2)c1cc(C(=O)O)[nH]n1 (stereo partly shown) [Example 74] , IC50 reported as 80 to 500 nM

Entry O=C(NC1(C(=O)N[C@@H](Cc2ccc(NC(=O)c3c(Cl)cccc3Cl)cc2)C(=O)O)CC2CCC1C2)c1cccnc1 (stereo partly shown) [Example 70] , IC50 reported as 80 to 500 nM

Entry O=C(Nc1ccc(C[C@H](NC(=O)N2CCCC(C(=O)O)C2)C(=O)O)cc1)c1c(Cl)cccc1Cl (stereo partly shown) [Example 114] , IC50 reported as 80 to 500 nM

---

Recorded pIC50 for the following compounds
# assayedSystem: α4β1 integrin (Homo sapiens, UniProt P05556+P13612)
# Construct: a T-cell line, Jurkat, known to express the α4β1 integrin; host or cells: Jurkat T-cell line
# Sequence (P13612 34-1032): as the sequence (P13612 34-1032) above
# Sequence (P05556 21-798): as the sequence (P05556 21-798) above
# experimentNotes: Jurkat-Endothelial Cell Adhesion Assay (Jurkat EC)
# Type: cell-based
# experimentalParameters: Jurkat cell adhesion to IL-1 stimulated endothelial cell monolayers
# Experimental: The following assay established the activity of the present compounds in inhibiting β1-mediated cell adhesion in a representative in vitro system. This assay measures the adhesive interactions of a T-cell line, Jurkat, known to express the α4β1 integrin, to endothelial monolayers in the presence of test compounds. […] The plates were incubated, washed and the percentage of attached cells was quantitated. […]
pIC50: −log10 of the molar value.

CC1(C)[C@@H](C(=O)N[C@@H](Cc2ccc(NC(=O)c3ccc(Cl)nc3Cl)cc2)C(=O)O)C[C@H]1C(=O)O; 5.30 to 6.10

Now for another entry.
α4β1 integrin (Homo sapiens, UniProt P05556+P13612) data for O=C(Nc1ccc(C[C@H](NC(=O)C2(NC(=O)C3CCCO3)CCCCC2)C(=O)O)cc1)c1c(Cl)cccc1Cl (stereo partly shown) ; its pIC50: ≥ 6.10

---

# assayedSystem: α4β1 (Homo sapiens, UniProt P05556+P13612)
# Construct: 100 µl of Jurkat cells (2.5 x 10^6 cells/ml) in DMEM plus BSA
# experimentNotes: Jurkat-CS-1 assay
# experimentalParameters: Jurkat cell adhesion to immobilized CS-1 derived peptide
pIC50: −log10 of the molar value.
measurementType: pIC50

Entry CC(=O)[C@@H]1C[C@H](C(=O)N[C@@H](Cc2ccc(NC(=O)c3ccc(Cl)nc3Cl)cc2)C(=O)O)C1(C)C [Example 107] , pIC50 reported as 6.30 to 7.10

Entry O=C(NC1CCCCC1C(=O)NC(Cc1ccc(NC(=O)c2c(Cl)cccc2Cl)cc1)C(=O)O)c1ccc([N+](=O)[O-])o1 (stereo not shown) [Example 85] , pIC50 reported as ≥ 7.10

Entry O=C(Nc1ccc(C[C@H](NC(=O)C2(NC(=O)C3CCCC(C(=O)O)C3)CCCCC2)C(=O)O)cc1)c1c(Cl)cccc1Cl (stereo partly shown) [Example 52] , pIC50 reported as ≥ 7.10

Entry COc1ccc(C(=O)NC2(C(=O)N[C@@H](Cc3ccc(NC(=O)c4c(Cl)cccc4Cl)cc3)C(=O)O)CCCCC2)cc1OC [Example 55] , pIC50 reported as 6.30 to 7.10

Entry CC1=C(C(=O)N[C@@H](Cc2ccc(NC(=O)c3c(Cl)cccc3Cl)cc2)C(=O)O)C(C)(C)CC/C1=C\C(=O)O [Example 118] , pIC50 reported as ≥ 7.10
